Values compiled from ChEMBL document CHEMBL1201862.

Tested on: SR
Experiment: NCI tumour cell line growth inhibition, 48 h
Calls of active or inactive are those of the source. Cut-off read from the data, not from the text of the source: active = GI50 up to about 1.1 µM and inactive = higher.
Valid outcomes are listed here; reply with one: 1 = active, 0 = inactive

Solved entries:
>  <molecule>
COC(=O)c1cnn2c1n[n+]([O-])c1ccccc12

>  <label>
0

$$$$
>  <molecule>
CC1(C)OC[C@H](C(=N)OCc2ccccc2)O1

>  <label>
0

$$$$
>  <molecule>
O=C(O)[C@H](c1ccccc1)[C@@H](C(=O)O)c1ccccc1

>  <label>
0

$$$$
>  <molecule>
CCN(CC)CCN1CCN=C2c3cc(OC)ccc3Nc3c([N+](=O)[O-])ccc1c32

>  <label>
1

$$$$
>  <molecule>
CC(=O)c1c(O)ccc2c1c1c(n2C)C(=O)c2ccccc2C1=O

>  <label>
0

$$$$

Q: Call for entry `N=C(N)N/N=C/c1c(-c2ccc(N)cc2)nc2sccn12` :
Ans: 0

Q: Name the outcome recorded for `Cc1cc(NS(=O)(=O)c2ccc(NC(=O)c3cccc4c(=O)c5ccccc5[nH]c34)cc2)no1` in the assay.
Ans: 0

Q: Write down the call the test reported for this molecule. Item: COC(=O)[C@H]1ON2O[C@H](OC3CCCC[C@@H]3c3ccccc3)C[C@@H]3CC[C@H]1[C@@]32C (stereo partly drawn)
Ans: 0

---

Tested on: IGROV-1
Test: NCI tumour cell line growth inhibition, 48 h
Active and inactive are the calls of the source. Rule as the data show it: active = GI50 up to about 1.1 µM and inactive = higher.
A correct response names exactly one class from active, inactive

>  <compound>
C=CC(C)(C)n1cc(C2=C(O)C(=O)C(c3cn(C(C)(C)C=C)c4ccccc34)=C(OC(C)=O)C2=O)c2ccccc21

>  <assayed-target>
IGROV-1

>  <label>
active

$$$$

Q: Just curious, what result did `NC1=C(Cl)C(=O)c2c(O)ccc(O)c2C1=O` get here?
Ans: inactive

Q: Recorded call for CC(C)=NNC1=NC(C)(C)P(=O)(NNc2ncccn2)S1 (stereo unspecified) ?
Ans: inactive

Q: Could you kindly confirm the outcome this assay logged for CCOC(=O)[C@@]12C(C)=CC(=O)O[C@]1(C)C1C(=O)NC(=O)C12 (stereo partly specified) ?
Ans: inactive

Q: Short answer needed: outcome of this test for `Cc1cc(N(CCC#N)CCC#N)ccc1/N=N/c1ccc(C(=O)O)cc1` ?
Ans: inactive

Q: Please let me know the test result on file for `COc1ccc2c(C)cc(=O)oc2c1OC` .
Ans: inactive

Q: Assay outcome for C=C(C)[C@@H]1CC[C@]2(C(=O)O)CC[C@]3(C)[C@H](CC[C@@H]4[C@@]5(C)CC[C@H](O)C(C)(C)[C@@H]5CC[C@]43C)[C@@H]12 [BETULINIC ACID] : what was it?
Ans: inactive

Q: What classification did CC(=O)OC/C=C(\C)CCC(Br)C(C)(C)Br (stereo unspecified) end up with in this test?
Ans: inactive

Q: Which outcome did this test record for the compound `CNc1ccc([N+](=O)[O-])c2c(NCCCN(C)C)ccnc12` ?
Ans: inactive

Q: Tell me the assay call for O=C1c2ccccc2NC(c2cc(Cl)cc(Cl)c2O)N1CCc1ccccn1 (stereo unspecified) please.
Ans: inactive

Q: Could you please tell me the result logged for CC12CCC(=O)N1c1cnccc1N2 (stereo unspecified) in this assay?
Ans: inactive

Q: Just curious, what result did C[N+](C)(C)CC1CCCc2ccccc2C1=O (stereo unspecified) get here?
Ans: inactive

Q: Called result for `Cn1nc2ccc(Nc3cc(=O)[nH]c4ccc5nn(C)nc5c34)cc2n1`
Ans: inactive

Q: Identify the outcome logged in this assay for the compound shown: `COc1cccc(NC(=O)CC(=O)NN)c1`
Ans: inactive

Q: Each compound tested received a call. Report the one for `CCCCOCn1c(=O)[nH]c(=O)c2ccccc21` .
Ans: inactive

Q: Identify the outcome logged in this assay for the compound shown: CC(C)C(C)C(O)C(O)C(C)C1CCC2C3COC(=O)C4CC(O)C(O)CC4(C)C3CCC12C (stereo unspecified)
Ans: inactive

Q: Called result for `c1csc(-c2cc(-c3cccs3)c(-c3ccsc3)s2)c1`
Ans: inactive

Q: Assay outcome for `c1ccc(P(=C2c3ccccc3-c3ccccc32)(c2ccccc2)c2ccccc2)cc1` : what was it?
Ans: inactive

Q: Which outcome did this test record for the compound `Cc1c(C#N)c(N)[nH]c(=S)c1C#N` ?
Ans: inactive

Q: Could you kindly confirm the outcome this assay logged for O=[N+]([O-])c1ccccc1C1N2CCCCC2[C@@H]2c3[nH]c4ccccc4c3CCN12 (stereo partly specified) ?
Ans: inactive

Q: Recorded test call requested for `Nc1nc(N)c2nc(CN(C=O)c3ccc(C(=O)O)cc3)cnc2n1`
Ans: inactive

Q: How did this test come out for `COC(=O)CCC(=O)N1Cc2cc(C)ccc2N(C(=O)CCC(=O)OC)Cc2cc(C)ccc21` ?
Ans: inactive

Q: Recorded test call requested for CC(=O)OC1CC2C(=O)C(=O)C1(C)C2(C)C (stereo unspecified)
Ans: inactive

Q: For this compound, state the assay outcome: CCCCCCCCCC1CC(=O)OC2=C1C(=O)CCC2 (stereo unspecified)
Ans: inactive

Q: Record lookup: outcome of this test for `Clc1cc(OCc2nn3c(Cc4ccccc4)nnc3s2)c(Cl)cc1OCc1nn2c(Cc3ccccc3)nnc2s1` ?
Ans: inactive

Q: Assay outcome for `CCCCC(=O)OC[n+]1ccc2c(C)c3[nH]c4ccc(OC)cc4c3c(C)c2c1` : what was it?
Ans: active
